Provenance of the data: ChEMBL document CHEMBL3856221

Catalogue of Ki readings, one per entry.
- TARGET_OR_SYSTEM: D(2) dopamine receptor (Homo sapiens)
- Sequence (P14416 whole entry): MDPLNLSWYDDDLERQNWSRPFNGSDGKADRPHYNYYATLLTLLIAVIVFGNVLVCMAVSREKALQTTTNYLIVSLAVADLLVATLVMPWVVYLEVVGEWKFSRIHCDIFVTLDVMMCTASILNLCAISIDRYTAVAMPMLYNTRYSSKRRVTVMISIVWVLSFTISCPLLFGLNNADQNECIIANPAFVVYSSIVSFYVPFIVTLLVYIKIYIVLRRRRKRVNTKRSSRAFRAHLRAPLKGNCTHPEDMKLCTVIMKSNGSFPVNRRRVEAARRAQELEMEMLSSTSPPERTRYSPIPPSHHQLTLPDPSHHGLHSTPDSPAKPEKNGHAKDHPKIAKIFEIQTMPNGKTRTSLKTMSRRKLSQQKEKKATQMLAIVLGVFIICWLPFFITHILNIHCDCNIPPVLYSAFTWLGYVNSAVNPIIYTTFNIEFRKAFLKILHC
- PROCEDURE_SUMMARY: Displacement of [3H]raclopride from human dopamine D2L receptor expressed in HEK293 cell membranes after 1 hr by microbeta counting analysis
- Type: cell-based

# MOLECULE, TARGET_OR_SYSTEM, Ki
records = [
    ("COc1ccc(-c2ccccc2N2CCN(CCCCCC(=O)NCc3ccc(C#N)cc3)CC2)cc1", "D(2) dopamine receptor (Homo sapiens)", "293 nM"),
    ("CN(C)Cc1ccc(CNC(=O)CCCCCN2CCN(c3ccccc3-c3ccccc3)CC2)cc1", "D(2) dopamine receptor (Homo sapiens)", "75 nM"),
    ("O=C(CCOCCN1CCN(c2cccnc2-c2ccc(F)cc2)CC1)NCc1ccc(C(F)(F)F)cc1", "D(2) dopamine receptor (Homo sapiens)", "3460 nM"),
    ("O=C(CCCCCN1CCN(c2ccccc2-c2ccccc2)CC1)NCc1ccc(OCCCN2CCOCC2)cc1", "D(2) dopamine receptor (Homo sapiens)", "64 nM"),
    ("O=C(CCOCCN1CCN(c2cccnc2-c2ccccc2)CC1)NCc1ccc(C(F)(F)F)cc1", "D(2) dopamine receptor (Homo sapiens)", "2770 nM"),
    ("O=C(CCCCCN1CCN(c2ccccc2-c2ccccc2)CC1)NCc1ccc(OCCN2CCOCC2)cc1", "D(2) dopamine receptor (Homo sapiens)", "136 nM"),
    ("C[C@H](NC(=O)CCCCCN1CCN(c2ccccc2-c2ccccc2)CC1)c1ccccc1", "D(2) dopamine receptor (Homo sapiens)", "53 nM"),
    ("COc1ccc(-c2ccccc2N2CCN(CCCCCC(=O)NCc3ccc(OCCN4CCOCC4)cc3)CC2)cc1", "D(2) dopamine receptor (Homo sapiens)", "375 nM"),
    ("COc1ccc(-c2ccccc2N2CCN(CCCCCC(=O)NCc3ccc(OCCO)cc3)CC2)cc1", "D(2) dopamine receptor (Homo sapiens)", "419 nM"),
    ("COc1ccc(-c2cc(F)ccc2N2CCN(CCCCCC(=O)NCc3ccc(C#N)cc3)CC2)cc1", "D(2) dopamine receptor (Homo sapiens)", "522 nM"),
    ("O=C(CCOCCN1CCN(c2ncccc2-c2ccc(F)cc2)CC1)NCc1ccc(C(F)(F)F)cc1", "D(2) dopamine receptor (Homo sapiens)", "393 nM"),
    ("C[C@@H]1CN(c2ccccc2-c2ccccc2)CCN1CCCCCC(=O)NCc1ccccc1", "D(2) dopamine receptor (Homo sapiens)", "178 nM"),
    ("N#Cc1ccc(CNC(=O)CCCCCN2CCN(c3ccc(F)cc3-c3ccc(C#N)cc3)CC2)cc1", "D(2) dopamine receptor (Homo sapiens)", "1380 nM"),
    ("COc1ccc(-c2ccccc2N2CCN(CCCCCC(=O)N[C@H](C)c3ccccc3)CC2)cc1", "D(2) dopamine receptor (Homo sapiens)", "295 nM"),
]
